- measurement target: B2 bradykinin receptor (Homo sapiens, UniProt P30411); note: in other assays of this panel Not Active means under 50% inhibition at 10 µM
- Sequence (P30411 whole entry): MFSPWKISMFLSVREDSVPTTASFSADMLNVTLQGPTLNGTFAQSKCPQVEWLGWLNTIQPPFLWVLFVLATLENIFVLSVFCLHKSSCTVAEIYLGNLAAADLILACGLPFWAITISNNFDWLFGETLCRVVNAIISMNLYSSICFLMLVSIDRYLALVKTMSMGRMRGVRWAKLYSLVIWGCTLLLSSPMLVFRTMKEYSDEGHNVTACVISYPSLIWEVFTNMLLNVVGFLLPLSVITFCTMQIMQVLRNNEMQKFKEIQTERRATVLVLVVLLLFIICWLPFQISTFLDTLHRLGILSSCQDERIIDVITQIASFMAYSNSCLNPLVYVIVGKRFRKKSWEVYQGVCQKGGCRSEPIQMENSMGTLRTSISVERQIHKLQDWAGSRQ
- Assay type: cell membranes, Membrane
- test conditions: chem-1
measured attribute: IC50

Request: Provide IC50, system B2 bradykinin receptor (Homo sapiens, UniProt P30411), entry COC(=O)C1=C(C)NC(C)=C(C(=O)OC)C1c1ccccc1[N+](=O)[O-] [NIFEDIPINE]; note: in other assays of this panel Not Active means under 50% inhibition at 10 µM
Result: Not Active

Request: Provide IC50, system B2 bradykinin receptor (Homo sapiens, UniProt P30411), entry COc1cccc(C2(O)CCCCC2CN(C)C)c1 (stereo not drawn) [TRAMADOL]; note: in other assays of this panel Not Active means under 50% inhibition at 10 µM
Result: Not Active

Request: Provide IC50, system B2 bradykinin receptor (Homo sapiens, UniProt P30411), entry Fc1ccc([C@@H]2CCNC[C@H]2COc2ccc3c(c2)OCO3)cc1 [PAROXETINE]; note: in other assays of this panel Not Active means under 50% inhibition at 10 µM
Result: Not Active

Request: Provide IC50, system B2 bradykinin receptor (Homo sapiens, UniProt P30411), entry CC(/C=C1\SC(=S)N(CC(=O)O)C1=O)=C\c1ccccc1; note: in other assays of this panel Not Active means under 50% inhibition at 10 µM
Result: Not Active

Request: Provide IC50, system B2 bradykinin receptor (Homo sapiens, UniProt P30411), entry CN(C)[C@@H]1C(O)=C(C(N)=O)C(=O)[C@@]2(O)C(O)=C3C(=O)c4c(O)cccc4[C@@](C)(O)[C@H]3[C@H](O)[C@@H]12 [OXYTETRACYCLINE]; note: in other assays of this panel Not Active means under 50% inhibition at 10 µM
Result: Not Active

Request: Provide IC50, system B2 bradykinin receptor (Homo sapiens, UniProt P30411), entry CCOC(=O)c1ccc(N)cc1 [BENZOCAINE]; note: in other assays of this panel Not Active means under 50% inhibition at 10 µM
Result: Not Active

Request: Provide IC50, system B2 bradykinin receptor (Homo sapiens, UniProt P30411), entry CC(=O)O[C@]1(C(C)=O)CC[C@H]2[C@@H]3C=C(Cl)C4=CC(=O)CC[C@]4(C)[C@H]3CC[C@@]21C [CHLORMADINONE ACETATE]; note: in other assays of this panel Not Active means under 50% inhibition at 10 µM
Result: Not Active

Moving on to another molecule below.
Request: Provide IC50, system B2 bradykinin receptor (Homo sapiens, UniProt P30411), entry CN(C)[C@@H]1C(O)=C(C(N)=O)C(=O)[C@@]2(O)C(O)=C3C(=O)c4c(O)cccc4[C@@](C)(O)[C@H]3C[C@@H]12 [TETRACYCLINE]; note: in other assays of this panel Not Active means under 50% inhibition at 10 µM
Result: Not Active
